Each recorded value in this set is attributed to patent US9156811B2.

target: T. brucei N-myristoyl transferase (Trypanosoma brucei brucei (strain 927/4 GUTat10.1)); experiment: biochemical; format: biochemical; conditions: value with no enzyme tag in the cell; taken as T. brucei NMT; read-out: IC50 (μM) NMT Enzyme
PARAMETER MEASURED: IC50 (µM)
One number for each entry, in µM.

Worked examples follow.
{"columns": ["COMPOUND", "UNIT SYMBOL", "IC50"],
 "data": [
  ["CCN(CC)Cc1cccc(-c2ccc([S+](=O)([O-])N(C)c3c(C)nn(C)c3C)cc2)c1", "µM", 0.05],
  ["Cc1c(N[S+](=O)([O-])c2ccc(-c3cccc(CN(C)C)c3)c(C(F)(F)F)c2)c(CC(C)C)nn1C", "µM", 0.006],
  ["Cc1nn(C)c(C)c1N[S+](=O)([O-])c1ccc(NCCCN2CCN(c3ccccc3)CC2)nc1", "µM", 1]
]}

As a next step, examine the compound that follows.
INPUT: Given Cc1nn(C)c(C)c1N[S+](=O)([O-])c1ccc(NCCCNC2CCN(Cc3ccccc3)C2)nc1 (stereo not shown) , state its recorded IC50.
OUTPUT: 1

====

biological target: human NMT-1 (Homo sapiens (Human), UniProt P30419); test: NMT enzyme inhibition scintillation proximity assay, human NMT-1; format: biochemical; settings: HuNMT-1
Sequence (P30419 whole entry): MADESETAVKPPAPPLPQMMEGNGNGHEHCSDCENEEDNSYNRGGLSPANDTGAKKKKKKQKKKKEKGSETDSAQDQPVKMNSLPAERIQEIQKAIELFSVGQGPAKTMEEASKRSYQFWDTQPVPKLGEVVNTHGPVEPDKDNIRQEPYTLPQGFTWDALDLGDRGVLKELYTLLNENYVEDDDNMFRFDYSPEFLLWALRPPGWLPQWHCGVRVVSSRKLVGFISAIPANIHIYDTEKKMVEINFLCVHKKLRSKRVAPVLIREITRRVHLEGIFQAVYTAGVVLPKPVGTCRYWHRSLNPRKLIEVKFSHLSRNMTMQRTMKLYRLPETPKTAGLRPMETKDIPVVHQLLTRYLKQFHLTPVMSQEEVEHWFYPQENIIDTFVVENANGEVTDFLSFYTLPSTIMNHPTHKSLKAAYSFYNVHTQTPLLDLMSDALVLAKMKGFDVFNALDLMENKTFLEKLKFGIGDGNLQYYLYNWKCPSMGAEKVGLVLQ
PARAMETER MEASURED: IC50 (µM)
Give bare numbers, in µM.

{"columns": ["COMPOUND", "IC50 [µM]"],
 "data": [
  ["Cc1nn(C)c(C)c1N(C)[S+](=O)([O-])c1c(Cl)cc(-c2cccc(CNC3CCCCC3)c2)cc1Cl [DDD88642]", 4.48],
  ["Cc1c(N(C)[S+](=O)([O-])c2ccc(CCCN3CCN(C)CC3)cc2)c(CC(C)C)nn1C [DDD90143]", 1.37],
  ["Cc1nn(C)c(C)c1NS(=O)(=O)c1ccc(N2CCc3cccc(N)c3C2)nc1 [DDD73498]", 4.3]
]}

As a next step, examine the compound that follows.
INPUT: Given Cc1nn(C)c(C)c1N(C)[S+](=O)([O-])c1ccc(CCCN2CCN(C)CC2)cc1 [DDD90115] , state its recorded IC50.
OUTPUT: 6.1

====

assay: CNS penetration: drug concentration in blood and brain after i.v. dosing; format: in vivo; details: whole blood, iv; female NMRI mouse, single i.v. dose 2.0 mg/kg, t = 5 min, average of three animals; read-out: Conc (ng/ml in blood)
Please provide measured concentration at 5 min for the entries that follow.
Give bare numbers, in ng/mL.

Worked examples follow.
{"columns": ["MOLECULE", "UNIT SYMBOL", "concentration at 5 min"],
 "data": [
  ["Cc1nn(C)c(C)c1N(CC(F)(F)F)[S+](=O)([O-])c1c(Cl)cc(CCCC2CCN(C)CC2)cc1Cl", "ng/mL", 269],
  ["CCN(CC)Cc1cccc(-c2ccc([S+](=O)([O-])Nc3c(CC(C)C)nn(C)c3C)cc2)c1", "ng/mL", 281],
  ["Cc1c(N[S+](=O)([O-])c2ccc(-c3cccc(CN(C)C)c3)cc2)c(CC(C)C)nn1C", "ng/mL", 642],
  ["Cc1nn(C)c(C)c1N(C(F)F)[S+](=O)([O-])c1c(Cl)cc(CCCCC2CCN(C)CC2)cc1Cl", "ng/mL", 413]
]}

INPUT: Given Cc1nn(C)c(C)c1N(C(F)F)[S+](=O)([O-])c1c(Cl)cc(CCCC2CCN(C)CC2)cc1Cl , state its recorded concentration at 5 min.
OUTPUT: 224

====

target: T. brucei N-myristoyl transferase (Trypanosoma brucei brucei (strain 927/4 GUTat10.1), UniProt Q388H8); test: biochemical; type: biochemical; conditions: value printed without enzyme tag in the NMT Enzyme column (taken as T. brucei NMT); read-out: IC50 (μM) NMT Enzyme
Sequence (Q388H8 1-446): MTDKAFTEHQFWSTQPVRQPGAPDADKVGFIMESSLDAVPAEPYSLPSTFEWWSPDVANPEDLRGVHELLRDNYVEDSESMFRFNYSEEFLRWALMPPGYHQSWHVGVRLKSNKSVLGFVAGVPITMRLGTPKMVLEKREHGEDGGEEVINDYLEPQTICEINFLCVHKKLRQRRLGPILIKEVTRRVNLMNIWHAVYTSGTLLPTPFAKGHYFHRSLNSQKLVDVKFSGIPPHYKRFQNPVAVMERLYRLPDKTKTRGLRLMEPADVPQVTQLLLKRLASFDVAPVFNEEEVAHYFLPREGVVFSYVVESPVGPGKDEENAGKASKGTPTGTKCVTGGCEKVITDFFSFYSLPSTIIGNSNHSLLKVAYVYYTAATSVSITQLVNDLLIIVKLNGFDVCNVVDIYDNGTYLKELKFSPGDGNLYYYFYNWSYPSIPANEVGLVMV
PARAMETER MEASURED: IC50 (µM)
Numbers only, in µM.

{"columns": ["COMPOUND", "IC50 (µM)"],
 "data": [
  ["Cc1nn(C)c(C)c1N(C)[S+](=O)([O-])c1c(Cl)cc(Br)cc1Cl", 0.36]
]}

For each of the items listed, what is its IC50?
1. COc1ccc(NCc2ccc([S+](=O)([O-])Nc3c(C)nn(C)c3C)cc2)cc1
2. Cc1nn(C)c(C)c1N[S+](=O)([O-])c1ccc(C(C)C)cc1
3. Cc1nn(C)c(C)c1N[S+](=O)([O-])c1ccc(NCc2ccc(Cl)c(Cl)c2)nc1
4. COc1cc(C)c([S+](=O)([O-])Nc2ccncn2)c(C)c1C
5. Cc1nn(C)c(C)c1N[S+](=O)([O-])c1ccc2c(c1)C(C)C(=O)N2 (stereo not drawn)
6. Cc1nn(C)c(C)c1N[S+](=O)([O-])c1ccc(NCc2ccn(C)n2)nc1
7. Cc1nn(C)c(C)c1N[S+](=O)([O-])c1cccc(Br)c1

OUTPUT:
1: 5.7; 2: 1.5; 3: 12.8; 4: 30; 5: 11.7; 6: 1.2; 7: 8

For each of the items listed, what is its IC50?
1. Cc1nn(C)c(C)c1N[S+](=O)([O-])c1ccc(N[C@H](C)c2ccc3ccccc3c2)nc1
2. Cc1nn(C)c(C)c1N[S+](=O)([O-])c1c(Cl)cc(-c2cccc(C(F)(F)F)c2)cc1Cl
3. Cc1nn(C)c(C)c1N[S+](=O)([O-])c1cc([S+](=O)([O-])c2ccccc2)cs1
4. Cc1nn(C)c(C)c1N[S+](=O)([O-])c1ccccc1F

OUTPUT:
1. 2.8
2. 40
3. 10.4
4. 5.6

INPUT: Given COc1ccc(OC)c([S+](=O)([O-])Nc2c(C)nn(C)c2C)c1 , state its recorded IC50.
OUTPUT: 30

====

biological target: T. brucei N-myristoyl transferase (Trypanosoma brucei brucei (strain 927/4 GUTat10.1)); assay: biochemical; assay type: biochemical; conditions: read-out: IC50 (μM) NMT Enzyme (T. brucei NMT)
Please provide measured IC50 for the entries that follow.
One number for each entry, in µM.

{"columns": ["MOLECULE", "IC50 / µM"],
 "data": [
  ["Cc1nn(C)c(C)c1N(C(F)F)[S+](=O)([O-])c1c(Cl)cc(CCCCCCn2ccnc2C(C)C)cc1Cl", 0.21]
]}

As a next step, examine the compound that follows.
INPUT: Given Cc1nn(C)c(C)c1N(C(F)F)[S+](=O)([O-])c1c(Cl)cc(CCCCCCn2ccnc2)cc1Cl , state its recorded IC50.
OUTPUT: 0.016

====

assay: CNS penetration: drug concentration in blood and brain after i.v. dosing; format: in vivo; settings: brain, iv; female NMRI mouse, single i.v. dose 2.0 mg/kg, t = 5 min, average of three animals; read-out: Conc (ng/ml in brain)
PARAMETER MEASURED: concentration at 5 min (ng/mL)
Answers are plain numbers, in ng/mL.

Worked examples follow.
{"columns": ["COMPOUND", "concentration at 5 min, ng/mL"],
 "data": [
  ["Cc1nn(C)c(C)c1N(C(F)F)[S+](=O)([O-])c1c(Cl)cc(CCCC2CCN(C)CC2)cc1Cl [DDD100097]", 335],
  ["Cc1nn(C)c(C)c1N(CC(F)(F)F)[S+](=O)([O-])c1c(Cl)cc(CCCC2CCN(C)CC2)cc1Cl [DDD100153]", 171],
  ["Cc1nn(C)c(C)c1N(C(F)F)[S+](=O)([O-])c1c(Cl)cc(CCCCC2CCN(C)CC2)cc1Cl [DDD100144]", 545],
  ["CCN(CC)Cc1cccc(-c2ccc([S+](=O)([O-])Nc3c(CC(C)C)nn(C)c3C)cc2)c1 [DDD88638]", 378]
]}

INPUT: Given Cc1c(N[S+](=O)([O-])c2ccc(-c3cccc(CN(C)C)c3)cc2)c(CC(C)C)nn1C [DDD99742] , state its recorded concentration at 5 min.
OUTPUT: 422

====

assay: CNS penetration: drug concentration in blood and brain after i.v. dosing; type: in vivo; conditions: brain, iv; female NMRI mouse, single i.v. dose 3.0 mg/kg, t = 5 min, average of three animals; read-out: Conc (ng/ml in brain)
PARAMETER MEASURED: concentration at 5 min (ng/mL)
Give bare numbers, in ng/mL.

INPUT: Given Cc1c(NS(=O)(=O)c2ccc(CCCC3CCN(C)CC3)cc2)c(CC(C)C)nn1C , state its recorded concentration at 5 min.
OUTPUT: 99

====

target: L. major N-myristoyl transferase (Leishmania major); assay type: biochemical; conditions: Leishmania major NMT; value in parentheses; read-out: IC50 (μM) NMT Enzyme (LmNMT)
Sequence (Q4Q5S8 1-421): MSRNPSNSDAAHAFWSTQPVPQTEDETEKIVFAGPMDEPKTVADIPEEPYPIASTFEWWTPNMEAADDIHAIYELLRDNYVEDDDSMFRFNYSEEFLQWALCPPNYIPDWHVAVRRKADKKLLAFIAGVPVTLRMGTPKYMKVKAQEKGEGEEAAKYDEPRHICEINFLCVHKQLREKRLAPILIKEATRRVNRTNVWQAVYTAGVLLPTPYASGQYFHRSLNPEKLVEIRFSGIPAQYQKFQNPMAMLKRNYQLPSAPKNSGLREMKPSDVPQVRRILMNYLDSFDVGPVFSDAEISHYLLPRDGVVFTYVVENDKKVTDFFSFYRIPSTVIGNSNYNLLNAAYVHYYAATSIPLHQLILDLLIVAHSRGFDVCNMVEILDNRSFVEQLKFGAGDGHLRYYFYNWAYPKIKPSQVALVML
Please provide measured log10 of IC50 for the entries that follow.
Plainly stated, the numbers are log10 of IC50 given in µM.

Worked examples follow.
{"columns": ["MOLECULE", "log10 of IC50"],
 "data": [
  ["CCCCc1nn(C)c(C)c1N[S+](=O)([O-])c1ccc(-c2cccc(CN(C)C)c2)cc1", -1.27],
  ["Cc1nn(C)c(C)c1N(C(F)F)[S+](=O)([O-])c1c(Cl)cc(CCCCCCn2ccnc2C(C)C)cc1Cl", -1.36],
  ["Cc1c(N[S+](=O)([O-])c2ccc(-c3cccc(CNC(C)C)c3)cc2)c(CC(C)C)nn1C", -0.33]
]}

For each of the items listed, what is its log10 of IC50?
1. Cc1c(N[S+](=O)([O-])c2ccc(-c3cccc(CN(C)C)c3)cc2)c(CCc2ccccc2)nn1C
2. Cc1c(N[S+](=O)([O-])c2ccc(-c3cccc(CN4CCCC4C)c3)cc2)c(CC(C)C)nn1C (centres unmarked)
3. Cc1c(N[S+](=O)([O-])c2ccc(-c3ccc(CN(C)C)cc3)cc2)c(CC(C)C)nn1C
4. Cc1c(N[S+](=O)([O-])c2ccc(-c3cccc(CNCCc4cccnc4)c3)cc2)c(CC(C)C)nn1C

OUTPUT:
1: -0.68; 2: -1.11; 3: 0.28; 4: -1.72
